test system: rats fed with cholesterol; test: in vivo antihyperlipoproteinemic test, rats fed cholesterol fodder for 7 days (Table 1); set-up: species or system Whistar hannover male rats; settings: po; rat; 30.0 mg/kg p.o.; read-out: LDL + VLDL % change
Where a name gives a salt, the structure may show the parent alone.
readout_kind: change in vivo at 30 mg/kg

1. Br.C=CCSc1nc2ccc(Cc3ccccc3)cc2[nH]1 [compound 0202154, hydrobromide]
-38.1%
2. CC(=O)CCn1c(=S)[nH]c2cc(Cc3ccccc3)ccc21
-58.2%
3. OCCCSc1nc2ccc(Cc3ccccc3)cc2[nH]1
-45.2%
4. O=C(O)CC(Sc1nc2ccc(Cc3ccccc3)cc2[nH]1)C(=O)O (stereo not drawn)
-17.5%
5. OCCSc1nc2ccc(Cc3ccccc3)cc2[nH]1
1%
6. CC(=O)CSc1nc2ccc(Cc3ccccc3)cc2[nH]1
-0.38%
7. O=C(O)CC(Sc1nc2ccc(C(=O)c3ccccc3)cc2[nH]1)C(=O)O (stereo not drawn)
-22.1%
8. CCOC(=O)CC(=O)CSc1nc2ccc(Cc3ccccc3)cc2[nH]1 [compound 0203232, hydrochloride]
-27.6%
9. CC(=O)CCn1c(=S)n(CCC(C)=O)c2cc(Cc3ccccc3)ccc21
-19.4%

----------
system: rats fed with cholesterol; test: in vivo antihyperlipoproteinemic test, rats fed cholesterol fodder for 7 days (Table 1); set-up: species or system Whistar hannover male rats; details: po; rat; 100.0 mg/kg p.o.; read-out: serum cholesterol change
Given measured change in vivo at 100 mg/kg, output condition met if it is greater than or equal to -40% and condition not met if not.

1) OCCCSc1nc2ccc(Cc3ccccc3)cc2[nH]1
condition not met
2) CCOC(=O)C(C)(C)Oc1ccc(Cl)cc1 [Clofibrate, reference compound]
condition met
3) CC(=O)CSc1nc2ccc(Cc3ccccc3)cc2[nH]1
condition not met
4) Br.C=CCSc1nc2ccc(Cc3ccccc3)cc2[nH]1 [compound 0202154, hydrobromide]
condition not met
5) O=C(O)CC(Sc1nc2ccc(Cc3ccccc3)cc2[nH]1)C(=O)O (stereo not drawn)
condition met
6) OCCSc1nc2ccc(Cc3ccccc3)cc2[nH]1
condition not met

----------
tested on: rats fed with cholesterol; assay: in vivo antihyperlipoproteinemic test, rats fed cholesterol fodder for 7 days (Table 1); set-up: species or system Whistar hannover male rats; settings: po; rat; 30.0 mg/kg p.o.; read-out: HDL cholesterol % change
Structures can show the parent of a compound that is named as a salt.
readout_kind: change in vivo at 30 mg/kg (%)

1) OCCCSc1nc2ccc(Cc3ccccc3)cc2[nH]1 [compound 0202367]
47.1
2) CC(=O)CSc1nc2ccc(Cc3ccccc3)cc2[nH]1 [compound 0202002]
-16.9
3) Br.C=CCSc1nc2ccc(Cc3ccccc3)cc2[nH]1 [compound 0202154, hydrobromide]
27
4) O=C(O)CC(Sc1nc2ccc(C(=O)c3ccccc3)cc2[nH]1)C(=O)O (stereo not drawn) [compound 0200086]
-35
5) CC(=O)CCn1c(=S)[nH]c2cc(Cc3ccccc3)ccc21 [compound 0200427]
-17.7
6) OCCSc1nc2ccc(Cc3ccccc3)cc2[nH]1 [compound 0202377]
-13.5
7) CC(=O)CCn1c(=S)n(CCC(C)=O)c2cc(Cc3ccccc3)ccc21 [compound 0200058]
30
8) O=C(O)CC(Sc1nc2ccc(Cc3ccccc3)cc2[nH]1)C(=O)O (stereo not drawn) [compound 0200131]
10
9) CCOC(=O)CC(=O)CSc1nc2ccc(Cc3ccccc3)cc2[nH]1 [compound 0203232, hydrochloride]
6.8

----------
test system: rats fed with cholesterol; assay: in vivo antihyperlipoproteinemic test, rats fed cholesterol fodder for 7 days (Table 1); design: species or system Whistar hannover male rats; conditions: po; rat; 100.0 mg/kg p.o.; read-out: serum cholesterol change
Structures can show the parent of a compound that is named as a salt.
readout_kind: change in vivo at 100 mg/kg (%)

1) CC(=O)CCn1c(=S)[nH]c2cc(Cc3ccccc3)ccc21
-51.7
2) O=C(O)CC(Sc1nc2ccc(C(=O)c3ccccc3)cc2[nH]1)C(=O)O (stereo not shown)
-35.4
3) CCOC(=O)CC(=O)CSc1nc2ccc(Cc3ccccc3)cc2[nH]1 [compound 0203232, hydrochloride]
-48.6
4) CC(=O)CCn1c(=S)n(CCC(C)=O)c2cc(Cc3ccccc3)ccc21
-10.6
